# maps each entry to its protein stability index
- Tested on: Saccharomyces cerevisiae;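 further: PSI is a weighted mean of sequencing reads over stability bins, variants kept only with over 10 reads, mCherry proximal and sfGFP distal, peptide attached via GGGS linker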
- ASSAY_NOTES: protein stability index of tFT-peptide fusion (C-terminal peptide) (PSI (0-1 scale)); higher = more stable (slower turnover)
- MEASUREMENT_CONDITIONS: genetic background: wild type; temperature: 30 C
MEASUREMENT_NAME: protein stability index

CONSTRUCT_SEQUENCE: LWGVGFLFVLVG
MEASUREMENT_NAME: protein stability index
RECORDED_VALUE: 0.131
//
CONSTRUCT_SEQUENCE: LILRVLFLFEPC
MEASUREMENT_NAME: protein stability index
RECORDED_VALUE: 0.368
//
CONSTRUCT_SEQUENCE: RKNIKISKAGIG
MEASUREMENT_NAME: protein stability index
RECORDED_VALUE: 0.287
//
CONSTRUCT_SEQUENCE: LLVFFLAIPSLV
MEASUREMENT_NAME: protein stability index
RECORDED_VALUE: 0.219
//
CONSTRUCT_SEQUENCE: VLLCFFLGIVGF
MEASUREMENT_NAME: protein stability index
RECORDED_VALUE: 0.299
//
CONSTRUCT_SEQUENCE: VLFLLLFVSRVA
MEASUREMENT_NAME: protein stability index
RECORDED_VALUE: 0.224
//
CONSTRUCT_SEQUENCE: SLSSSFQFSSPS
MEASUREMENT_NAME: protein stability index
RECORDED_VALUE: 0.65
//
CONSTRUCT_SEQUENCE: FIMHRIFMALVI
MEASUREMENT_NAME: protein stability index
RECORDED_VALUE: 0.253
//
CONSTRUCT_SEQUENCE: GLYLVFMGFVPC
MEASUREMENT_NAME: protein stability index
RECORDED_VALUE: 0.325
//
CONSTRUCT_SEQUENCE: GNIHHTRFLALL
MEASUREMENT_NAME: protein stability index
RECORDED_VALUE: 0.498
//
CONSTRUCT_SEQUENCE: FSYLSFLPSLAA
MEASUREMENT_NAME: protein stability index
RECORDED_VALUE: 0.468
//
CONSTRUCT_SEQUENCE: VVCFVVCGFYLG
MEASUREMENT_NAME: protein stability index
RECORDED_VALUE: 0.242
//
CONSTRUCT_SEQUENCE: RLVCPFYIACVW
MEASUREMENT_NAME: protein stability index
RECORDED_VALUE: 0.488
//
CONSTRUCT_SEQUENCE: RYCVVDISAFCD
MEASUREMENT_NAME: protein stability index
RECORDED_VALUE: 0.388
//
CONSTRUCT_SEQUENCE: GFFCVWSLLFFN
MEASUREMENT_NAME: protein stability index
RECORDED_VALUE: 0.187
//
CONSTRUCT_SEQUENCE: PRHLTPPPAPSA
MEASUREMENT_NAME: protein stability index
RECORDED_VALUE: 0.659
//
CONSTRUCT_SEQUENCE: IVWVSSFVCRSV
MEASUREMENT_NAME: protein stability index
RECORDED_VALUE: 0.426
//
CONSTRUCT_SEQUENCE: VHTAIFTSWRRL
MEASUREMENT_NAME: protein stability index
RECORDED_VALUE: 0.494
//
CONSTRUCT_SEQUENCE: FYPFHVFCLLIF
MEASUREMENT_NAME: protein stability index
RECORDED_VALUE: 0.162
//
CONSTRUCT_SEQUENCE: LRRVHRIKLQVC
MEASUREMENT_NAME: protein stability index
RECORDED_VALUE: 0.0996
//
CONSTRUCT_SEQUENCE: GRVAIFTLLWRI
MEASUREMENT_NAME: protein stability index
RECORDED_VALUE: 0.252
//
CONSTRUCT_SEQUENCE: ALCPPLPMLVVA
MEASUREMENT_NAME: protein stability index
RECORDED_VALUE: 0.137
//
CONSTRUCT_SEQUENCE: EYGLLLTLLAYY
MEASUREMENT_NAME: protein stability index
RECORDED_VALUE: 0.324
//
CONSTRUCT_SEQUENCE: ALNFFSLFMLFR
MEASUREMENT_NAME: protein stability index
RECORDED_VALUE: 0.325
//
CONSTRUCT_SEQUENCE: NKYSMQNVLKSF
MEASUREMENT_NAME: protein stability index
RECORDED_VALUE: 0.323
//
CONSTRUCT_SEQUENCE: SIQRKIRRMKEN
MEASUREMENT_NAME: protein stability index
RECORDED_VALUE: 0.333
//
CONSTRUCT_SEQUENCE: LLSLPTTNLMAF
MEASUREMENT_NAME: protein stability index
RECORDED_VALUE: 0.403
//
CONSTRUCT_SEQUENCE: RNKIWCTVIMRL
MEASUREMENT_NAME: protein stability index
RECORDED_VALUE: 0.234
//
CONSTRUCT_SEQUENCE: CMYTILRHKINN
MEASUREMENT_NAME: protein stability index
RECORDED_VALUE: 0.147
//
CONSTRUCT_SEQUENCE: PDPIFGEWVYMV
MEASUREMENT_NAME: protein stability index
RECORDED_VALUE: 0.26
//
CONSTRUCT_SEQUENCE: YCAMVAVGVVGG
MEASUREMENT_NAME: protein stability index
RECORDED_VALUE: 0.334
//
CONSTRUCT_SEQUENCE: YLGSLQVPVHLF
MEASUREMENT_NAME: protein stability index
RECORDED_VALUE: 0.255
//
CONSTRUCT_SEQUENCE: GFAFFIGLSFAF
MEASUREMENT_NAME: protein stability index
RECORDED_VALUE: 0.461
//
CONSTRUCT_SEQUENCE: DHSWGGLLICTC
MEASUREMENT_NAME: protein stability index
RECORDED_VALUE: 0.364
//
CONSTRUCT_SEQUENCE: PGFCFFLYYCMM
MEASUREMENT_NAME: protein stability index
RECORDED_VALUE: 0.412
//
CONSTRUCT_SEQUENCE: VWRLCFPFALVR
MEASUREMENT_NAME: protein stability index
RECORDED_VALUE: 0.132
//
CONSTRUCT_SEQUENCE: FCLGFRFFVFFL
MEASUREMENT_NAME: protein stability index
RECORDED_VALUE: 0.163
//
CONSTRUCT_SEQUENCE: RTWLHLVVPVWG
MEASUREMENT_NAME: protein stability index
RECORDED_VALUE: 0.228
//
CONSTRUCT_SEQUENCE: CFATTCLRCKWV
MEASUREMENT_NAME: protein stability index
RECORDED_VALUE: 0.459
//
CONSTRUCT_SEQUENCE: FLPFRVFNFSLV
MEASUREMENT_NAME: protein stability index
RECORDED_VALUE: 0.229
//
CONSTRUCT_SEQUENCE: ACVWVVALVWVF
MEASUREMENT_NAME: protein stability index
RECORDED_VALUE: 0.153
//
CONSTRUCT_SEQUENCE: ICTHPCLRLRLN
MEASUREMENT_NAME: protein stability index
RECORDED_VALUE: 0.0887
//
CONSTRUCT_SEQUENCE: PWFSWLLYSFLF
MEASUREMENT_NAME: protein stability index
RECORDED_VALUE: 0.458
//
CONSTRUCT_SEQUENCE: LDLSSLRCRYLL
MEASUREMENT_NAME: protein stability index
RECORDED_VALUE: 0.214
//
CONSTRUCT_SEQUENCE: SFLVFLYFFMVF
MEASUREMENT_NAME: protein stability index
RECORDED_VALUE: 0.303
//
CONSTRUCT_SEQUENCE: TPRQYVVSLSLC
MEASUREMENT_NAME: protein stability index
RECORDED_VALUE: 0.123
//
CONSTRUCT_SEQUENCE: LFWFRGTIVTPR
MEASUREMENT_NAME: protein stability index
RECORDED_VALUE: 0.634
//
CONSTRUCT_SEQUENCE: AIMFLVLGYVFF
MEASUREMENT_NAME: protein stability index
RECORDED_VALUE: 0.276
//
CONSTRUCT_SEQUENCE: LYYSVIFLFLSW
MEASUREMENT_NAME: protein stability index
RECORDED_VALUE: 0.208
//
CONSTRUCT_SEQUENCE: RLMLSWLALRRC
MEASUREMENT_NAME: protein stability index
RECORDED_VALUE: 0.344
//
CONSTRUCT_SEQUENCE: FCRLTFCFFAFL
MEASUREMENT_NAME: protein stability index
RECORDED_VALUE: 0.438
